read-out: BCL2L11 (gene 10018); test: LTEA_HepaRG_BCL2L11: Life Technologies and Expression Analysis (LTEA) Assay for Bcl-2 (BCL2L11) gene using HepaRG (AID 2283473); conditions: mRNA level, 48 h; actives raise or lower the signal
Active and inactive are the calls of the source. How the source made its calls: active means hit-call score of the fitted dose curve at least 0.9, where 1 is the maximum; inactive means score below 0.9.
property.name: AC50

AC50 for CC(=O)C(C)=CC1C(C)=CCCC1(C)C (stereo not drawn) ? inactive

Suppose we examine the compound CC(C)(C)c1cc(O)c(C(C)(C)C)cc1O ; what AC50 value has been reported? inactive

What value of AC50 has been reported for the following compound? CCCCCCCCCCCCCCCC inactive

Fill blank: measured AC50 of the compound c1cc(-c2ccncc2)ccn1 is ____. inactive

Fill in: AC50 of COC(=O)c1ccc(O)cc1 is ___ inactive

Each of the following entries comes with a recorded value; kindly state AC50 for each.
1. Cc1cccc([N+](=O)[O-])c1C
2. O=C(OCCCCCOC(=O)c1ccccc1)c1ccccc1
3. Cc1cc(=O)[nH]c(=S)[nH]1

1. inactive
2. 2.45 µM (active)
3. inactive

###

experiment: Tanguay_ZF_120hpf_SNOU_legacy: (Legacy) Oregon State University Tanguay Lab 120 Hour Post-fertilization zebrafish Assay for Snout Malformation (AID 2283637)
Results filed as inconclusive are left out. The source made the active and inactive calls. Rule for the calls: active = hit-call score of the fitted dose curve at least 0.9, where 1 is the maximum; inconclusive = response in the unintended direction; inactive = score below 0.9.
Pick from active, inactive when you respond.

How was C=CCc1ccc(O)c(OC)c1 classified in this test? inactive

Short answer needed: outcome of this test for Cc1ccc(Cl)cc1 ? inactive

Hi, sorry to bother you, what did the test record for O=C(OCCCCCOC(=O)c1ccccc1)c1ccccc1 ? inactive

Answer briefly: the call reported for CCCCC(CC)COC(=O)CC(C(=O)OCC(CC)CCCC)S(=O)(=O)O (stereo not given) in this assay. inactive

In this assay, the call recorded for CCCCOC(=O)CCCCCCCCC(=O)OCCCC was what? inactive

Which outcome was entered for the molecule CC(CO)OC(C)CO (stereo not given) (tested in a mixture with another compound) in this test? inactive

Next item in the queue.
Call for entry CCOc1ccc2c(c1)C(C)=CC(C)(C)N2 : active

###

read-out: Urokinase-type plasminogen activator receptor (uPAR), PLAUR (gene 5329); assay: BSK_CASM3C_uPAR: BioMAP Diversity Plus: CASM3C Assay for Urokinase-type plasminogen activator receptor (uPAR) Biomarker Activity (AID 2283054); details: primary human coronary artery smooth muscle cells; actives raise or lower the signal;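 further: cell-surface uPAR protein level quantified by ELISA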
The source made the active and inactive calls. How the source made its calls: active means hit-call score of the fitted dose curve at least 0.9, where 1 is the maximum; inactive means score below 0.9.
Log the outcome using a class from active, inactive

Use these answered entries as a reference point.
Outcome logged for COc1ccc2c(c1)c(CC(=O)O)c(C)n2C(=O)c1ccc(Cl)cc1 in this assay: inactive

Hey, what did the test say about COc1cc(C=O)ccc1O ? inactive

Recorded test outcome, item Cc1c(C(=O)O)c(O)cc2c1C(=O)c1c(O)c([C@@H]3O[C@H](CO)[C@@H](O)[C@H](O)[C@H]3O)c(O)c(O)c1C2=O inactive

# outcome recorded in this test, key = CCCCOC(=O)CCCCCCCCC(=O)OCCCC inactive

Could you check what this test reported for Cc1ccc(N(C)C)cc1 ? inactive

Hey, what did the test say about COc1cc(S(=O)(=O)O)c(C)cc1N=Nc1c(O)ccc2cc(S(=O)(=O)O)ccc12 ? inactive

Continuing:
Answer briefly: the call reported for CCCCCCCCCCO in this assay. inactive

Just curious, what result did Cc1nc(C)nc(N2C[C@@H](C)N(c3ccnc([C@@H](C)O)n3)[C@@H](C)C2)n1 get here? inactive

###

assay: CCTE_Deisenroth_DEVTOX-GLR_Endo_CellCount: Viability Assessment in CCTE's DevTox GLR-Endo Assay, Deisenroth Lab (AID 2284420)
Active and inactive are the calls of the source. Rule for the calls: active = hit-call score of the fitted dose curve at least 0.9, where 1 is the maximum; inactive = score below 0.9.
Answer with one of the outcomes yes (1) (active), no (0) (inactive)

Here are 4 compounds together with their reported answers.
What is the recorded call for this compound in the test? CC(=O)Oc1ccccc1C(=O)O no (0)

Kindly provide the recorded test outcome for the following compound: CC1=C(/C=C/C(C)=C/C=C/C(C)=C/CO)C(C)(C)CCC1 yes (1)

Fill in: this test's call for O=c1[nH]cc(F)c(=O)[nH]1 is ___ yes (1)

Tell me the recorded outcome of this test for COc1ccc2c(c1)c(CC(=O)O)c(C)n2C(=O)c1ccc(Cl)cc1 . yes (1)

// next entry
Per the assay record, what outcome was assigned to CCCc1cc(=O)[nH]c(=S)[nH]1 ? no (0)

###

target: Nuclear receptor subfamily 4 group A member 2 (Homo sapiens) (UniProt P43354); test: ATG_NURR1_TRANS: Attagene TRANS-FACTORIAL HepG2 Assay for human Nuclear Receptor Related Protein 1 (NURR1) (AID 2282985); details: HepG2 Attagene TRANS reporter, mRNA readout
Sequence (P43354 whole entry, looked up): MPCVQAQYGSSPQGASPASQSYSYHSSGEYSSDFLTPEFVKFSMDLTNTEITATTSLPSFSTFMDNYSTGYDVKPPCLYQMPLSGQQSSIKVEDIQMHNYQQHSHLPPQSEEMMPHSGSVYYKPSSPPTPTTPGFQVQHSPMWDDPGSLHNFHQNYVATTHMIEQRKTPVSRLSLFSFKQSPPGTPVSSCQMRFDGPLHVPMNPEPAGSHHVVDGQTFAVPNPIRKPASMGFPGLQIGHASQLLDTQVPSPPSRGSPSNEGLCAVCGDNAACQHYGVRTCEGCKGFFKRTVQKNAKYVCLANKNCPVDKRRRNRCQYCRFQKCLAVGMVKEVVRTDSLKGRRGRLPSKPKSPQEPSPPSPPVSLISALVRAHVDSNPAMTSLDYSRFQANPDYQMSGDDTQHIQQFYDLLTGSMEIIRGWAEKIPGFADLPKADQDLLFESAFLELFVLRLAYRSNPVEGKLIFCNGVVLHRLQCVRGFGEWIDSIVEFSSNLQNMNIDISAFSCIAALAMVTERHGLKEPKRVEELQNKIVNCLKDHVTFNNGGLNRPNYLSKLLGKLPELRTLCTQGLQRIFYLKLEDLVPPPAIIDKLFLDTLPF
Results filed as inconclusive are left out. Activity calls are given as the source filed them. The calls were made as follows: active = hit-call score of the fitted dose curve at least 0.9, where 1 is the maximum; inconclusive = response in the unintended direction; inactive = score below 0.9.
Could you please pick one outcome from this set? 1 (yes) (active), 0 (no) (inactive)

Per the records of this test, what outcome belongs to Cc1cccc(C)c1O ? 0 (no)

Write down the call the test reported for this compound. Item: NS(=O)(=O)c1cc2c(cc1Cl)NCNS2(=O)=O 0 (no)

Any idea what this test logged for CCOc1ccc2c(c1)C(C)=CC(C)(C)N2 ? 1 (yes)

Please let me know the test result on file for Cc1cccc([N+](=O)[O-])c1C . 0 (no)

Next:
Lab log entry: Nc1nc(N)c2nc(CNc3ccc(C(=O)N[C@@H](CCC(=O)O)C(=O)O)cc3)cnc2n1 — outcome as called in the assay? 0 (no)

Hi, do you know how CCCCCCCCCCCC(=O)OC came out in this test? 0 (no)

Short answer needed: outcome of this test for CC(C)(C)c1cc(O)c(C(C)(C)C)cc1O ? 0 (no)

Assay result, entry CCc1c(C(=O)NN2CCCCC2)nn(-c2ccc(Cl)cc2Cl)c1-c1ccc(Br)cc1 — outcome? 0 (no)

Please indicate how the test categorized CCCc1cc(=O)[nH]c(=S)[nH]1 . 0 (no)

How was CCOC(=O)C(C)(C)Oc1ccc(Cl)cc1 classified in this test? 0 (no)

Just curious, what result did NC(=O)Cn1c(=O)cc(CCN2CCN(c3nccc4sccc34)CC2)c2ccc(F)cc21 get here? 0 (no)

Give the logged outcome of this assay for the following compound: CCCCCC(=O)O 0 (no)

Could you please tell me the result logged for CN1CCCC1=O in this assay? 0 (no)

###

read-out: Broad substrate specificity ATP-binding cassette transporter ABCG2 (Homo sapiens); experiment: LTEA_HepaRG_ABCG2: Life Technologies and Expression Analysis (LTEA) Assay for ABC Transporter (ABCG2) using HepaRG (AID 2283465); conditions: mRNA level, 48 h; actives raise or lower the signal
The source made the active and inactive calls. Rule for the calls: active = hit-call score of the fitted dose curve at least 0.9, where 1 is the maximum; inactive = score below 0.9.
Your reply should match one of these outcome classes. active, inactive

Example entries begin here.
Hi, do you know how O=C(O)CCCCC(=O)O came out in this test? inactive

Status in this test for CC1(C)CC(N=C=O)CC(C)(CN=C=O)C1 (centres undefined) ? inactive

Dear colleague, could you share the recorded outcome for Nc1ccccc1N when you have a moment? inactive

---
Could you check what this test reported for O=c1c(O)c(-c2ccc(O)c(O)c2)oc2cc(O)cc(O)c12 ? inactive

I'd appreciate the recorded outcome for CCCCCCCC=O from this test. inactive

Test call, this compound: CC1(C)NC(=O)NC1=O inactive

How did this test come out for COc1cc(S(=O)(=O)O)c(C)cc1N=Nc1c(O)ccc2cc(S(=O)(=O)O)ccc12 ? inactive

For Cc1ccc(N(C)C)cc1 , which call appears in the assay record? inactive

Answer briefly: the call reported for CNC(=O)[C@H]1O[C@@H](n2cnc3c(NCc4cc(Cl)ccc4OCc4cc(C)no4)ncnc32)[C@H](O)[C@@H]1N in this assay. inactive

Outcome logged for CCCCCC(=O)O in this assay: inactive

Give the logged outcome of this assay for the following compound: Nc1ccc2c(c1)C(=O)c1ccccc1C2=O active

Each compound tested received a call. Report the one for CC(=O)OCCOCCOCCOC(C)=O . inactive

Returns: the outcome recorded for Cc1ccc(Cl)cc1 in this assay. inactive

Hello, I am checking results. What call was entered for CCCCCCCCCCC ? inactive

###

assay: APR_HepG2_MitoticArrest_72hr: Apredica 72-hour HepG2 Assay for Mitotic Arrest (AID 2282918); conditions: high-content imaging, actives raise or lower the signal
Active and inactive are the calls of the source. The calls were made as follows: active = hit-call score of the fitted dose curve at least 0.9, where 1 is the maximum; inactive = score below 0.9.
Write down the outcome that applies. Available outcomes: TRUE (active), FALSE (inactive)

What classification did CCCCCCCCCCCCCCCC end up with in this test? FALSE

// param item: Cc1cccc(Nc2cc(Cl)nc(SCC(=O)O)n2)c1C ; yields the recorded call FALSE

Name the outcome recorded for CCNc1cccc(C)c1 in the assay. FALSE

// outcome(item) with item = Nc1nc(N)c2nc(CNc3ccc(C(=O)N[C@@H](CCC(=O)O)C(=O)O)cc3)cnc2n1 FALSE

What call does the record list for O=[N+]([O-])C(CO)(CO)CO ? TRUE

Test call, this molecule: Cc1nc(-c2ccc3c(c2)CCN(CCC2CCC(NC(=O)/C=C/c4ccc(F)cc4)CC2)CC3)no1 (configuration not stated) TRUE

Any idea what this test logged for CCCCCCCCCCCCCO ? TRUE

For O=C(OCCCCCOC(=O)c1ccccc1)c1ccccc1 , what call appears in the results of this test? FALSE

Recorded test call requested for CCCc1cc(=O)[nH]c(=S)[nH]1 FALSE

Field: outcome | Entry: CN1CCN(Cc2cc(-c3ccc4[nH]c(=O)oc4c3)co2)[C@@H](c2ccc(F)cc2)C1 TRUE

---
Tell me the recorded outcome of this test for CN1CCCC1=O . FALSE

Call for entry C[C@]12C=CC(=O)C=C1CC[C@@H]1[C@@H]2C(=O)C[C@@]2(C)[C@H]1CC[C@]2(O)C(=O)CO : FALSE

Value source: PubChem BioAssay (EPA / NIEHS)
